Numbers sourced from ChEMBL document CHEMBL3853262.

Tested on: BJ
ASSAY_NAME: Proapoptotic activity in human BJ cells by annexin V-FITC/propidium iodide staining-based capillary cytometric method
Assay type: functional, cell-based
MEASURED_PROPERTY: EC50 (µM)
Numbers only, in µM.

Examples from the recorded data:
{"SMILES_INPUT": "COc1ccc2[nH]c(C(=O)Nc3cccc(-c4c[nH]c(N)n4)c3)cc2c1", "EC50, µM": 31}
{"SMILES_INPUT": "Nc1nc(-c2cccc(NC(=O)c3cc4cc(Cl)ccc4[nH]3)c2)c[nH]1", "EC50, µM": 20}
{"SMILES_INPUT": "CNc1nc(-c2cccc(NC(=O)c3cc4ccccc4[nH]3)c2)c[nH]1.Cl", "EC50, µM": 21}

Would you kindly look at the next entry?
Challenge: May I ask what EC50 has been recorded for "Nc1nc(-c2cccc(NC(=O)c3cc4cc(F)ccc4[nH]3)c2)c[nH]1" ?
Response given: 16
